# TEST_METHOD_NOTES: Chamelogk, chromatographic chameleonicity descriptor (PLRP-S RP-HPLC)
# Format: physicochemical
# CONDITION_DESCRIPTION: Exp. minus Ext. log k' PLRP-S at 100% MeCN; linear fit at 50, 60, 70% MeCN; 20 mM ammonium acetate pH 7.0; 30 °C
Field: Chamelogk. Provide a value for each of the molecules that follow.
Provide a numeric answer; units are not to be included.

Form field Chamelogk, entry CC/C(=C(/CC)c1ccc(O)cc1)c1ccc(O)cc1 : 0.44

Kindly note the recorded Chamelogk for CCn1nc(C2CC2)cc1Nc1nc(C(=O)NC)nc2[nH]c3cc(-c4c(C)noc4C)c(OC)cc3c12 , which is 0.15

Sample Cc1ncsc1-c1ccc(CNC(=O)[C@@H]2C[C@@H](O)CN2C(=O)[C@@H](NC(=O)CCOCCOc2ccc(Nc3ncc(C(F)(F)F)c(NCc4cccc(N(C)S(C)(=O)=O)c4)n3)cc2)C(C)(C)C)cc1 ; Chamelogk observed: 0.79

---

# TEST_METHOD_NOTES: Chamelogk, chromatographic chameleonicity descriptor (PLRP-S RP-HPLC)
# Type: physicochemical
# CONDITION_DESCRIPTION: Exp. minus Ext. log k' PLRP-S at 100% MeCN; linear fit at 50, 60, 70% MeCN; 20 mM ammonium acetate pH 7.0; 30 °C
VALUE_TYPE: Chamelogk

Entry CC(=O)N1c2ccc(-c3ccc(C(=O)NCCOCCOCCOCC(=O)N[C@H](C(=O)N4C[C@H](O)C[C@H]4C(=O)NCc4ccc(-c5scnc5C)cc4)C(C)(C)C)cc3)cc2[C@H](Nc2ccc(Cl)cc2)C[C@@H]1C [MZP-54] , Chamelogk reported as 1.18

The molecule CC(=O)N[C@H](C(=O)N1C[C@@H](O)C[C@H]1C(=O)NCc1ccc(-c2scnc2C)cc1O)C(C)(C)C [cis-phenol-VH032 (S,S,S)] showed Chamelogk equal to 0.65

For record Cc1sc2c(c1C)C(c1ccc(Cl)cc1)=N[C@@H](CC(=O)NCCCCNC(=O)COc1cccc3c1C(=O)N(C1CCC(=O)NC1=O)C3=O)c1nnc(C)n1-2 (stereo partly shown) [dBET1] the listed Chamelogk is 0.8

Entry CC(=O)O[C@H]1C(=O)[C@@]2(C)[C@H]([C@H](OC(=O)c3ccccc3)[C@]3(O)C[C@H](OC(=O)[C@H](O)[C@@H](NC(=O)c4ccccc4)c4ccccc4)C(C)=C1C3(C)C)[C@]1(OC(C)=O)CO[C@@H]1C[C@@H]2O [paclitaxel] — recorded Chamelogk = 0.15

Per the record, Cc1sc2c(c1C)C(c1ccc(Cl)cc1)=NC(CC(N)=O)c1nnc(C)n1-2 (stereo not shown) [CPI203] has Chamelogk of 0.54

For this molecule ( COc1cc2ncnc(Nc3ccc(F)c(Cl)c3)c2cc1OCCCCCOCCOCCC(=O)N[C@H](C(=O)N1C[C@H](O)C[C@H]1C(=O)NCc1ccc(-c2scnc2C)cc1)C(C)(C)C [gefitinib-based PROTAC 3] ), measured Chamelogk is 1.36

Chamelogk measured on COC(=O)C[C@@H]1N=C(c2ccc(Cl)cc2)c2c(sc(C)c2C)-n2c(C)nnc21 [MS-417] = 0.29

// Chamelogk lookup, molecule = C[C@]12CCC(=O)C=C1CC[C@@H]1[C@@H]2[C@@H](O)C[C@@]2(C)[C@H]1CC[C@]2(O)C(=O)CO [hydrocortisone] , result: 0.10

Record Cc1ncsc1-c1ccc(CNC(=O)[C@@H]2C[C@H](O)CN2C(=O)[C@@H](NC(=O)C2(C#N)CC2)C(C)(C)C)c(O)c1 [cis-OH-VH298 (S,S,S)] , field Chamelogk: 0.45

// recorded Chamelogk for CCN1C(=O)c2cc(C)ccc2Nc2ncccc21 [BI-1580] : 0.1

Chamelogk measured on Brc1cnc2ccccc2c1 [3-bromoquinoline] = 0.13

The molecule identified as Oc1ccccc1 [phenol] registered its Chamelogk at 0.16

Entry under test: CCC[C@H](NC(=O)[C@@H]1[C@H]2CCC[C@H]2CN1C(=O)[C@@H](NC(=O)[C@@H](NC(=O)c1cnccn1)C1CCCCC1)C(C)(C)C)C(=O)C(=O)NC1CC1 [telaprevir] . Its Chamelogk was 0.31

---

# TEST_METHOD_NOTES: Chamelogk, chromatographic chameleonicity descriptor (PLRP-S RP-HPLC)
# Assay type: physicochemical
# CONDITION_DESCRIPTION: Exp. minus Ext. log k' PLRP-S at 100% MeCN; linear fit at 50, 60, 70% MeCN; 20 mM ammonium acetate pH 7.0; 30 °C
VALUE_TYPE: Chamelogk
Give only the figure.

Record summary for COC(=O)N[C@H](C(=O)N[C@@H](Cc1ccccc1)[C@@H](O)CN(Cc1ccc(-c2ccccn2)cc1)NC(=O)[C@@H](NC(=O)OC)C(C)(C)C)C(C)(C)C : reported Chamelogk = 0.33

Entry under test: Cc1sc2c(c1C)C(c1ccc(Cl)cc1)=N[C@@H](CC(=O)NCCCCCC(=O)NCc1cccc3c1C(=O)N(C1CCC(=O)NC1=O)C3=O)c1nnc(C)n1-2 (some centres unmarked) . Its Chamelogk was 0.83

Field Chamelogk (entry Cc1c(O)cccc1C(=O)N[C@@H](CSc1ccccc1)[C@H](O)CN1C[C@H]2CCCC[C@H]2C[C@H]1C(=O)NC(C)(C)C ) reads 0.74

Recorded result, Cc1ncsc1-c1ccc(CNC(=O)[C@@H]2C[C@@H](O)CN2C(=O)[C@@H](NC(=O)COCCOCCOCCNC(=O)C[C@@H]2N=C(c3ccc(Cl)cc3)c3c(sc(C)c3C)-n3c(C)nnc32)C(C)(C)C)cc1 , Chamelogk: 1.15

response.value for Cc1ncsc1-c1ccc(CNC(=O)[C@@H]2C[C@H](O)CN2C(=O)[C@@H](NC(=O)COCCOCCOCCNC(=O)C[C@@H]2N=C(c3ccc(Cl)cc3)c3c(sc(C)c3C)-n3c(C)nnc32)C(C)(C)C)cc1 [cisMZ1] (field: Chamelogk) = 1.27

---

# TEST_METHOD_NOTES: log kW^IAM and Δ log kW^IAM (IAM chromatography)
# Assay type: physicochemical
# CONDITION_DESCRIPTION: IAM column, extrapolated to 100% buffer from 10 to 50% MeCN, pH 7.0
Provide the reported log kW^IAM of each item.
# respond with the number and nothing more

Lookup result for CC[C@@H]1/C=C(\C)C[C@H](C)C[C@H](OC)[C@H]2O[C@@](O)(C(=O)C(=O)N3CCCC[C@H]3C(=O)O[C@H](/C(C)=C/[C@@H]3CC[C@H](Cl)[C@H](OC)C3)[C@H](C)[C@@H](O)CC1=O)[C@H](C)C[C@@H]2OC [pimecrolimus] ; measured log kW^IAM: 3.35

Short answer for COC(=O)N[C@H](C(=O)N[C@@H](Cc1ccccc1)[C@@H](O)CN(Cc1ccc(-c2ccccn2)cc1)NC(=O)[C@@H](NC(=O)OC)C(C)(C)C)C(C)(C)C [atazanavir] : log kW^IAM was 2.74

Summary for this molecule, Cc1c(O)cccc1C(=O)N[C@@H](CSc1ccccc1)[C@H](O)CN1C[C@H]2CCCC[C@H]2C[C@H]1C(=O)NC(C)(C)C [nelfinavir] : log kW^IAM is 2.69

So for CO[C@H]1C[C@@H]2CC[C@@H](C)[C@@](O)(O2)C(=O)C(=O)N2CCCC[C@H]2C(=O)O[C@H]([C@H](C)C[C@@H]2CC[C@@H](OCCO)[C@H](OC)C2)CC(=O)[C@H](C)/C=C(\C)[C@@H](O)[C@@H](OC)C(=O)[C@H](C)C[C@H](C)/C=C/C=C/C=C/1C [everolimus] , the logged log kW^IAM turned out to be 4.15

Query CC(C)(C)NC(=O)[C@@H]1C[C@@H]2CCCC[C@@H]2CN1C[C@@H](O)[C@H](Cc1ccccc1)NC(=O)[C@H](CC(N)=O)NC(=O)c1ccc2ccccc2n1 [saquinavir] yields log kW^IAM of 3.44

Documented log kW^IAM of Cc1ncsc1-c1ccc(CNC(=O)[C@@H]2C[C@H](O)CN2C(=O)[C@@H](NC(=O)COCCOCCOCCNC(=O)C[C@@H]2N=C(c3ccc(Cl)cc3)c3c(sc(C)c3C)-n3c(C)nnc32)C(C)(C)C)cc1 [cisMZ1] : 2.90

Value of log kW^IAM reported for the molecule CCC[C@H](NC(=O)[C@@H]1[C@H]2CCC[C@H]2CN1C(=O)[C@@H](NC(=O)[C@@H](NC(=O)c1cnccn1)C1CCCCC1)C(C)(C)C)C(=O)C(=O)NC1CC1 [telaprevir] is 3.02

Input Cc1ncsc1-c1ccc(CNC(=O)[C@@H]2C[C@@H](O)CN2C(=O)[C@@H](NC(=O)COCCOCCOCCNC(=O)C[C@@H]2N=C(c3ccc(Cl)cc3)c3c(sc(C)c3C)-n3c(C)nnc32)C(C)(C)C)cc1 [MZ1] . Output log kW^IAM: 2.83

Given item CC(C)c1nc(CN(C)C(=O)N[C@H](C(=O)N[C@@H](Cc2ccccc2)C[C@H](O)[C@H](Cc2ccccc2)NC(=O)OCc2cncs2)C(C)C)cs1 [ritonavir] , the value recorded as its log kW^IAM is 3.02
